TESTED_TARGET: T1, human CD24 (human, UniProt P25063 27-59, heavily glycosylated, GPI-anchored (as described in the background))
T1 construct: whole, on cells; Target of all cell-based FACS assays; also called hCD24; Cluster of differentiation 24
T1 chain (looked up): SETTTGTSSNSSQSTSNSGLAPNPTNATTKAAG
EXPERIMENT_NOTES: FACS, 5637 cells
Experimental: Sequences of some of antibodies from Table 1 were selected to generate and produce human IgG4 chimeric antibodies. […] The protocol for FACs analysis is described as follows: [0536] a. Digested cells using TrypLE™ Express Enzyme (IX); Centrifuged the harvested cells at 400 g for 5 min and discarding the supernatant. [0537] b. Washed the cells 2 times with cold FACS buffer by centrifuging at 400 g for 5 min and discarding the supernatant. [0538] c. […] Incubate at 40° C. for 1 h. [0539] d. […]
MEASURED_ENDPOINT: EC50 (nM)
One number for each entry, in nM.

Fill in EC50 for each of the 2 binders listed.
1. ch110D4G4-hIgG4 (antibody, V domains shown, chimeric; also called chAb110D4G4) VH: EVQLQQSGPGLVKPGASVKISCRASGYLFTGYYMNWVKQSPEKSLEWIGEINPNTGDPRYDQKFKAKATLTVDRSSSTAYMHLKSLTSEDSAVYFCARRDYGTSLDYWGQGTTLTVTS VL: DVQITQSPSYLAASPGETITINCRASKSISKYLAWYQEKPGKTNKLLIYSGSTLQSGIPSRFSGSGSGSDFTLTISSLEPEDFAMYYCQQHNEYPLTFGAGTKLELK
2. ch100F2E3-hIgG4 (antibody, V domains shown, chimeric) VH: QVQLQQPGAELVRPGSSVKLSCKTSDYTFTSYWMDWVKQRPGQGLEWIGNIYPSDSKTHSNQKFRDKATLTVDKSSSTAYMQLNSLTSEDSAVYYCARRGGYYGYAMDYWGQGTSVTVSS VL: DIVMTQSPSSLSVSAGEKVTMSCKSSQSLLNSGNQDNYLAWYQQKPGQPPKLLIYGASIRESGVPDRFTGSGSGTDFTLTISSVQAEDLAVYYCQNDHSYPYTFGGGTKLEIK

A)
2.18
3.42

meta.source: patent US20240052052A1
